Overview of recorded IL-g Response Frequency for various substances
Test system: peripheral blood mononuclear cells (PBMC), T cells
Assay: ELISpot assay, IL-5 release (SFC) after stimulation with a-synuclein epitope pools
Type: cell-based, human
Settings: Patients Summary; PD patients; single peptide
Field format: number, assumed %, no unit text.

Form: substance = 3521.0049 (APQEGILEDM; listed as Homo sapiens) ; IL-g Response Frequency = 0

Form: substance = 3521.0062 (KTKKGVVHG; listed as Homo sapiens) ; IL-g Response Frequency = 17

Form: substance = 3521.0005 (AVVTGVTAV; listed as Homo sapiens) ; IL-g Response Frequency = 0

Form: substance = 3521.0085 (EGVVHGVATVAEKTK; listed as Homo sapiens) ; IL-g Response Frequency = 0

Here is another substance to look at.
Form: substance = 3521.0018 (MPVDPDNEA; listed as Homo sapiens) ; IL-g Response Frequency = 0
